System: SK-MEL-2
assay-remarks: NCI tumour cell line growth inhibition, 48 h
Calls of active or inactive are those of the source. Cut-off read from the data, not from the text of the source: active = GI50 up to about 1.1 µM and inactive = higher. Where a SMILES comes first, the peptide text is derived from it. The star is where a group is joined. Boc = CC(C)(C)OC(=O)*; OBn = c1ccc(CO*)cc1
Kindly state GI50 for each of the entries shown.

Entry under review: CCOC(=O)CC1(c2cccc3ccccc23)OC(=O)c2ccccc21 (centres undefined) . Reported GI50?
32.1 µM (inactive)

Entry under review: "O=C(CCl)Nc1ccc(C(=O)N/N=C/c2ccc(Cl)cc2)cc1" . Reported GI50?
5.58 µM (inactive)

Entry under review: COC(=O)C1=C(c2ccc3c(c2)OCO3)OC(c2ccc3c(c2)OCO3)C1 (centres undefined) . Reported GI50?
> 100 µM (inactive)

Entry under review: "O=C([C@H](O)[C@@H](O)c1cccc(Cl)c1)C12CC3CC(CC(C3)C1)C2" . Reported GI50?
1.95 µM (inactive)

Entry under review: "CC(=O)/C=c1\[nH]/c(=C\C=C\c2ccccc2)c(=O)n1/C=C1\C(=O)Oc2ccccc2C1=O" . Reported GI50?
> 100 µM (inactive)

Entry under review: "CCCCOCCOC1=C(Cl)C(=O)c2c(O)ccc(O)c2C1=O" . Reported GI50?
1.37 µM (inactive)

Entry under review: "CCNC(=O)COc1ccc(Br)cc1Br" . Reported GI50?
42.9 µM (inactive)

Entry under review: COC(=O)C(=O)C1CCCCC(C2=NC3NN=C(N)N3C2=O)C1=O (centres undefined) . Reported GI50?
> 100 µM (inactive)

Entry under review: CC(NC(=O)C(Cc1ccccc1)NC(=O)C(Cc1ccccc1)NC(=O)OC(C)(C)C)C(=O)OCc1ccccc1 (stereo not drawn) (Boc-Phe-Phe-Ala-OBn; configuration not given here) . Reported GI50?
> 100 µM (inactive)
